System: NGF
experimental details: Enhancing activity for NGF production in L-M cells (NGF in culture medium by enzyme immunoassay)
Format: cell-based, murine
condition description: Concentration of Sample 2 mM, 20 hours, control = 100%
endpoint name: Amount of NGF Production (%)
Numbers only, in %.

{"columns": ["compound", "unit abbreviation", "Amount of NGF Production (%)"],
 "data": [
  ["CC(=O)OC1C(O)COC(OC2C(O)COC(OC3C(O)C(C)(C)CC4C5=CCC6C7(C)CCC(OC8OC(C(=O)O)C(O)C(O)C8OC8OC(CO)C(O)C(O)C8OC8OC(CO)C(O)C(O)C8O)C(C)(CO)C7CCC6(C)C5(C)CCC43C)C2O)C1OC(C)=O (stereo not shown)", "%", 276.5],
  ["CC1OC(OC2C(OC3C(OC4CCC5(C)C(CCC6(C)C5CC=C5C7CC(C)(C)CC(=O)C7(C)CCC56C)C4(C)CO)OC(C(=O)O)C(O)C3O)OC(CO)C(O)C2O)C(O)C(O)C1O (stereo not shown)", "%", 531.2],
  ["CC(=O)OC1COC(OC2C(O)COC(OC3C(O)C(C)(C)CC4C5=CCC6C7(C)CCC(OC8OC(C(=O)O)C(O)C(O)C8OC8OC(CO)C(O)C(O)C8OC8OC(CO)C(O)C(O)C8O)C(C)(CO)C7CCC6(C)C5(C)CCC43C)C2O)C(OC(C)=O)C1OC(C)=O (stereo not shown)", "%", 233.4]
]}

With those in mind, consider the next compound.
Lookup result for CC1(C)C[C@@H](O)[C@]2(C)CC[C@]3(C)C(=CC[C@@H]4[C@@]5(C)CC[C@H](O[C@@H]6O[C@H](C(=O)O)[C@@H](O)[C@H](O)[C@H]6O[C@@H]6O[C@H](CO)[C@H](O)[C@H](O)[C@H]6O[C@@H]6O[C@H](CO)[C@@H](O)[C@H](O)[C@H]6O)[C@@](C)(CO)[C@@H]5CC[C@]43C)[C@@H]2C1 ; measured Amount of NGF Production (%): 169.4
